Test: Comparison of bioavailability after nasal, intravenous and oral administration
Assay type: in vivo, Sprague-Dawley male rats
Details: male, Sprague-Dawley, rat, in vivo, inhaled or intranasal; rats, nasal, 2 mg/kg, in composition of Formulation Example; read-out: AUC0-2hr
Method: Twenty four (24) white rats (body weight 250-300 g, Sprague-Dawley male rats) were classified into 3 groups, namely 6, 11 and 7 rats. […] Ondansetron hydrochloride was dissolved in the composition obtained in Formulation Example for nasal administration, in 0.9% saline for intravenous administration, and in purified water for oral administration as vehicles, respectively. […] The bioavailibity parameters were calculated from the assay results.
quantityKind: AUC(0-t) (ng·h/mL)
Numeric only. Scale: ng·h/mL

Exam item: Name the recorded AUC(0-t) of the molecule listed here: Cc1nccn1CC1CCc2c(c3ccccc3n2C)C1=O.Cl.O.O (stereo not shown) [ondansetron hydrochloride]
Marked response: 53.2

This collection of values is drawn from patent US20030044356A1.
